Listed molecules paired with reported EC50
Target: human 5-HT2C receptor (Homo sapiens, UniProt P28335, I156V/I160V/N158S)
Sequence (P28335 33-458 I156V/N158S/I160V limits assumed): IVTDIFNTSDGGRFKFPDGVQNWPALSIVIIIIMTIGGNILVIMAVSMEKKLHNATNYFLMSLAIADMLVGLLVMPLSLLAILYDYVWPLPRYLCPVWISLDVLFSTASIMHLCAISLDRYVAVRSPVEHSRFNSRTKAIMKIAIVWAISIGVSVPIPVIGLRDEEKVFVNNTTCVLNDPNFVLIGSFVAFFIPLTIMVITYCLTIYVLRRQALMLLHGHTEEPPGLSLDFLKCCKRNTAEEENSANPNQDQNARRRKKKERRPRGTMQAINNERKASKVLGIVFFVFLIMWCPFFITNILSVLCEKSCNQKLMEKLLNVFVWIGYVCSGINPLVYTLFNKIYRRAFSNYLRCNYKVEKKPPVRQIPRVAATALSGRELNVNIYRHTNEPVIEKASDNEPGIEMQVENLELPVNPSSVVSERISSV
Test: cell-based
Just the number in nM, nothing appended.

>>> df
                                   molecule  metric_name  readout_value
0  CN1C(C)(C)CC(NC(=O)C2CN(c3c4c(nc5ccnn35)CCNCC4)C2)CC1(C)C         EC50              9
1  Cc1cccc(C2CCN(C(=O)C3CN(c4c5c(nc6ccnn46)CCNCC5)C3)CC2)c1         EC50            101
2  Cc1ccc(OC2CN(c3c4c(nc5ccnn35)CCNCC4)C2)c(C)c1         EC50            266
3  CCN1CCCC1CNC(=O)C1CN(c2c3c(nc4ccnn24)CCN(C)CC3)C1 (centres unmarked)         EC50            252
4  Cc1ccc(CN(C)C(=O)C2CN(c3c4c(nc5ccnn35)CCNCC4)C2)s1         EC50             53

Endpoint output: EC50 of `O=C(C1CN(c2c3c(nc4ccnn24)CCNCC3)C1)N1CCC2(CCCCC2)CC1` . Value?
50

Next molecule up: `O=C(NC1CCCC1)C1CN(c2c3c(nc4ccnn24)CCNCC3)C1`
458

Next molecule up: C#CC1CCN(C(=O)C2CN(c3c4c(nc5ccnn35)CCN(C)CC4)C2)C1 (centres unmarked)
78

Next molecule up: `CCc1cnn2c(N3CC(C(=O)N(C)C)C3)c3c(nc12)CCNCC3`
10

Next molecule up: `O=C(NCC(F)(F)F)C1CN(c2c3c(nc4ccnn24)CCNCC3)C1`
228

Next molecule up: CN1CCc2nc3ccnn3c(N3CC(C(=O)N4CCC(C(F)(F)F)C4)C3)c2CC1 (centres unmarked)
89

Next molecule up: `c1ccc2[nH]c(C3CN(c4c5c(nc6ccnn46)CCNCC5)C3)nc2c1`
611

Next molecule up: `O=C(C1CN(c2c3c(nc4ccnn24)CCNCC3)C1)N1CCCC(F)(F)C1`
24
